test system: Chenopodium album; assay: Farming soil treatment test; type: in vivo; conditions: 5g a.i./10a; soil surface spray prior to weed growth; 30 days
Below, each of the compounds is paired with its reported herbicidal efficacy Chenopodium album value.

- Structure As Smiles: "C=CCOC(=O)N(C(=O)OCC=C)c1c(C#N)cnn1-c1nn2c(c1Cl)CCCC2"
  herbicidal efficacy Chenopodium album: "9 (9: 90% to less than 100%)"

For this compound ( CCOC(=O)N(C(=O)OCC)c1c(C#N)cnn1-c1nn2c(c1Cl)CCCC2 ), measured herbicidal efficacy Chenopodium album is 9 (9: 90% to less than 100%)

For this compound ( CCOC(=O)N(C(=O)OC)c1c(C#N)cnn1-c1nn2c(c1Cl)CCCC2 ), measured herbicidal efficacy Chenopodium album is 9 (9: 90% to less than 100%)

For this compound ( COC(=O)N(C(=O)OC)c1c([N+](=O)[O-])cnn1-c1nn2c(c1Br)CCCC2 ), measured herbicidal efficacy Chenopodium album is 10 (10: 100%)

For this compound ( COC(=O)N(C(=O)OC)c1c(C#N)cnn1-c1nn2c(c1Br)CCCC2 ), measured herbicidal efficacy Chenopodium album is 9 (9: 90% to less than 100%)

For this compound ( CCOC(=O)N(C(=O)OCC)c1c(C#N)cnn1-c1nn2c(c1Br)CCCC2 ), measured herbicidal efficacy Chenopodium album is 9 (9: 90% to less than 100%)
